tested on: HEK-293T; test: Multiplex assay against HEK293T; format: toxicity, cell-based; conditions: human, 12 h, 1 µM, compound concentration 1 uM, replicate 1
Provide the reported Population Pyknosed Nuclei (%) of each item.
Give a bare numeral; the unit % is implied.

Data request: Fill in reported Population Pyknosed Nuclei (%) for this entry: Cc1ccc(C)c(Oc2ccncc2C(=O)N2CCN(C3CC3)c3ccccc32)c1
Data returned: 44

Data request: Fill in reported Population Pyknosed Nuclei (%) for this entry: Cc1nc(N2CC[C@H](O)C2)ncc1-c1cc(C(F)(F)F)cc2[nH]ncc12
Data returned: 20

Data request: Fill in reported Population Pyknosed Nuclei (%) for this entry: CC(C)CC(=O)Nc1[nH]nc2c1CN(C(=O)C1CCN(C)CC1)C2(C)C [PHA-793887]
Data returned: 17

Data request: Fill in reported Population Pyknosed Nuclei (%) for this entry: CCc1ccc(OCc2ccccc2C(=O)Nc2ccc3nc(C)cc(N)c3c2)cc1.Cl
Data returned: 64

Data request: Fill in reported Population Pyknosed Nuclei (%) for this entry: C=CC(=O)Nc1cccc(Sc2nc(Nc3ccc(N4CCN(C)CC4)cc3)ncc2Cl)c1
Data returned: 57

Data request: Fill in reported Population Pyknosed Nuclei (%) for this entry: CC(C)(C)NC[C@H](O)COc1nsnc1N1CCOCC1 [TIMOLOL]
Data returned: 50

Data request: Fill in reported Population Pyknosed Nuclei (%) for this entry: C[C@]12CC[C@@H]3c4ccc(O)cc4CC[C@H]3[C@@H]1CC[C@@H]2O [ESTRADIOL]
Data returned: 44

Data request: Fill in reported Population Pyknosed Nuclei (%) for this entry: COc1cc2ncn(-c3cc(OCc4ccccc4C(F)(F)F)c(C(N)=O)s3)c2cc1OC [GW843682X]
Data returned: 40

Data request: Fill in reported Population Pyknosed Nuclei (%) for this entry: CC1=C(C(=O)Nc2cc3cn[nH]c3cc2F)C(c2ccc(C(F)(F)F)cc2)CC(=O)N1 (centres undefined)
Data returned: 42

Data request: Fill in reported Population Pyknosed Nuclei (%) for this entry: O=c1cc(N2CCOCC2)oc2c(-c3cccc4c3sc3ccccc34)cccc12
Data returned: 52

Data request: Fill in reported Population Pyknosed Nuclei (%) for this entry: CN1CCN(Cc2ccc(Nc3ncc(Cl)c(Nc4ccccc4S(=O)(=O)N(C)C)n3)cc2)CC1 [DUBERMATINIB]
Data returned: 42

Data request: Fill in reported Population Pyknosed Nuclei (%) for this entry: CC(C)NC(=O)N1CC[C@H](NC2=Nc3cc(F)ccc3N(CC(F)F)c3ccc(Cl)cc32)C1
Data returned: 46

Data request: Fill in reported Population Pyknosed Nuclei (%) for this entry: COC(=O)C1=C(C)NC(C)=C(C(=O)OCCCN2CCC(c3ccccc3)(c3ccccc3)CC2)[C@H]1c1cccc([N+](=O)[O-])c1 [NIGULDIPINE]
Data returned: 58

Data request: Fill in reported Population Pyknosed Nuclei (%) for this entry: Cc1cccc(CN2CCN(C(c3ccccc3)c3ccc(Cl)cc3)CC2)c1.Cl.Cl (centres undefined)
Data returned: 60

Data request: Fill in reported Population Pyknosed Nuclei (%) for this entry: CNC(=O)Nc1ccc(-c2nc(N3CC4CCC(C3)O4)c3cnn(C4CCC5(CC4)OCCO5)c3n2)cc1
Data returned: 68

Data request: Fill in reported Population Pyknosed Nuclei (%) for this entry: C=CC(=O)Nc1cccc(Oc2nc(Nc3ccc(N4CCN(C)CC4)cc3OC)ncc2Cl)c1
Data returned: 50

Data request: Fill in reported Population Pyknosed Nuclei (%) for this entry: O=c1[nH]c2ccccc2n1C1CCN(Cc2ccc(-c3[nH]c4cc5ncnc5cc4nc3-c3ccccc3)cc2)CC1
Data returned: 16

Data request: Fill in reported Population Pyknosed Nuclei (%) for this entry: CC(C)OC(=O)N1CCC(Oc2ncnc3c2cnn3-c2ccc(S(C)(=O)=O)cc2F)CC1
Data returned: 56

Data request: Fill in reported Population Pyknosed Nuclei (%) for this entry: COc1ccccc1CN[C@H]1C2CCN(CC2)[C@H]1C(c1ccccc1)c1ccccc1 [CP-96345]
Data returned: 50

Data request: Fill in reported Population Pyknosed Nuclei (%) for this entry: Cc1ccc2c(c1)c1c(n2CCc2ccc(C)nc2)CCN(C)C1 [LATREPIRDINE]
Data returned: 51

Data request: Fill in reported Population Pyknosed Nuclei (%) for this entry: CCc1nn(CCCN2CCN(c3cccc(Cl)c3)CC2)c(=O)n1CCOc1ccccc1.Cl [NEFAZODONE HYDROCHLORIDE]
Data returned: 46

Data request: Fill in reported Population Pyknosed Nuclei (%) for this entry: CC(C)c1noc(N2CCC(COc3ccc(-c4ccc(S(C)(=O)=O)cc4)nc3)CC2)n1 [GSK-1292263]
Data returned: 54

Data request: Fill in reported Population Pyknosed Nuclei (%) for this entry: COc1ccc(-c2ccc3ncc4c(c3c2)n(-c2ccc(N3CCNCC3)c(C(F)(F)F)c2)c(=O)n4C)cn1.O=C(O)/C=C\C(=O)O [BGT-226]
Data returned: 74

Data request: Fill in reported Population Pyknosed Nuclei (%) for this entry: O=C(c1cc2c(cc1F)OC(c1ccc(F)cc1)(c1ccc(Cl)cc1Cl)O2)N1CCOCC1 (centres undefined)
Data returned: 44

Data request: Fill in reported Population Pyknosed Nuclei (%) for this entry: Cc1c[nH]c2nccc(Oc3c(F)cc(Nc4cc(Cl)nc(N)n4)cc3F)c12 [BAY-549]
Data returned: 52

Data request: Fill in reported Population Pyknosed Nuclei (%) for this entry: C=CC(=O)Nc1ccc2[nH]c(=O)n(C3CCN(Cc4ccc(-c5nc6cc[nH]c(=O)c6cc5-c5ccccc5)cc4)CC3)c2c1 [Borussertib]
Data returned: 17

Data request: Fill in reported Population Pyknosed Nuclei (%) for this entry: COc1cc(Nc2nccc(-c3cnn4nc(OC)ccc34)n2)cc(C(F)(F)F)c1
Data returned: 64

Data request: Fill in reported Population Pyknosed Nuclei (%) for this entry: CC(C)Oc1ccccc1C(=O)Nc1ccccc1C(=O)Nc1cccc(S(=O)(=O)C(F)(F)F)c1
Data returned: 47

Data request: Fill in reported Population Pyknosed Nuclei (%) for this entry: Cc1ccccc1C(c1ccccc1C)N1C2CCC1CC(O)(c1ccccc1)C2 (centres undefined)
Data returned: 48
